test: Primary qHTS for inhibitors of nuclear receptor binding SET domain protein 2 (NSD2) in an isogenic RCH-ACV NSD2 p.E1099K mutant (9B) (AID 1645876); settings: RCH-ACV (leukaemia line) NSD2 E1099K (9B) viability, CellTiter-Glo, 72 h; series mostly up to 44.9 µM; also: nearly all actives have a fitted effect of over 70% in size
Inconclusive results are not listed. The source made the active and inactive calls. Calls follow the shape of the dose curve; as a rule, active = well fitted inhibition curve with a large enough effect; inconclusive = small, poorly fitted or top-dose-only effect; inactive = flat fitted curve, though single readings scatter.
Outcome codes: yes (1) for active, no (0) for inactive

[
  {
    "compound": "CC1OC2OC3C(OCC(O)C3O)OC(=O)C34CCC(C)(C)CC3C3=CCC5C6(C)CC(O)C(OC7OC(CO)C(O)C(O)C7OC7OCC(OC(=O)CC(C)(O)CC(=O)OC1C(OC1OCC(O)C(O)C1O)C2O)C(O)C7O)C(C)(CO)C6CCC5(C)C3(C)CC4O (centres undefined)",
    "label-value": "yes (1)"
  },
  {
    "compound": "O=C1NC(=NCc2cccs2)S/C1=C/c1ccc2ncccc2c1",
    "label-value": "yes (1)"
  },
  {
    "compound": "CCCCCC1CC1CC1CC1CCCCCCCC(=O)O (centres undefined)",
    "label-value": "no (0)"
  },
  {
    "compound": "OCC(Cc1ccccc1)Nc1nc(Oc2ccc3c(c2)CCC3)nc2c1ncn2Cc1ccc(-c2ccccc2)cc1 (centres undefined)",
    "label-value": "yes (1)"
  },
  {
    "compound": "C=C1C(=O)O[C@H]2[C@H]1[C@@H](OC(=O)/C(C)=C\\C)C[C@]1(C)O[C@@H]1[C@H]1O[C@H]1C(=C)[C@H]2O",
    "label-value": "yes (1)"
  },
  {
    "compound": "CC(C)n1cc(-c2ccc(Oc3ccccc3)cc2)c2c(N)ncnc21",
    "label-value": "yes (1)"
  },
  {
    "compound": "CCn1c(=O)c2cc(C(N)=O)c(N)nc2n(C2CC2)c1=O",
    "label-value": "no (0)"
  },
  {
    "compound": "Clc1ccccc1CNCC1CCC(CNCc2ccccc2Cl)CC1 (centres undefined)",
    "label-value": "yes (1)"
  },
  {
    "compound": "CC(C)n1nc(-c2ccc(NC(=O)Nc3cccc(C(F)(F)F)c3)cc2)c2c(N)ncnc21",
    "label-value": "yes (1)"
  },
  {
    "compound": "Oc1cccc(-c2nc(N3CCOCC3)c3sccc3n2)c1",
    "label-value": "yes (1)"
  },
  {
    "compound": "COc1cc2nc(N3CCN(C)CC3)nc(NC3CCN(Cc4ccccc4)CC3)c2cc1OC",
    "label-value": "yes (1)"
  },
  {
    "compound": "Cc1ccc(CCCO)c(NCc2ccc3nc(NCCCN4CCOCC4)n(Cc4nc(C)ccc4O)c3c2)c1",
    "label-value": "yes (1)"
  },
  {
    "compound": "O=C1CCc2cc(S(=O)(=O)Nc3ccc(F)c(Cl)c3)c(F)cc2N1",
    "label-value": "no (0)"
  },
  {
    "compound": "C[C@H]1COCCN1c1cc(C2(S(=O)(=O)C3CC3)CC2)nc(-c2ccc(NC(=S)NCCO)cc2)n1",
    "label-value": "yes (1)"
  },
  {
    "compound": "COc1ccc(NC(=O)N2CCc3c2ccc2ccccc32)cc1N1CCN(C)CC1",
    "label-value": "yes (1)"
  },
  {
    "compound": "CC(C)=CCC/C(C)=C/CC/C(C)=C/CSc1ccccc1C(=O)O",
    "label-value": "no (0)"
  },
  {
    "compound": "CN(C)CC(=O)N1CCC[C@@H](n2nc(-c3ccc(Oc4ccccc4)cc3)c3c(N)ncnc32)C1",
    "label-value": "yes (1)"
  },
  {
    "compound": "N#Cc1cccc(C#N)c1-c1nc2c3ccccc3c3cc(Cl)ccc3c2[nH]1",
    "label-value": "yes (1)"
  },
  {
    "compound": "CCCCN=C(N)NC(=N)N",
    "label-value": "no (0)"
  }
]
